Below is a list of entries, each paired with its recorded pIC50 value.
# testedSystem: HEK-293 cells transfected with dox-inducible human wild type FGFR1 (Homo sapiens (Human), UniProt P11362)
# Sequence (P11362 22-822): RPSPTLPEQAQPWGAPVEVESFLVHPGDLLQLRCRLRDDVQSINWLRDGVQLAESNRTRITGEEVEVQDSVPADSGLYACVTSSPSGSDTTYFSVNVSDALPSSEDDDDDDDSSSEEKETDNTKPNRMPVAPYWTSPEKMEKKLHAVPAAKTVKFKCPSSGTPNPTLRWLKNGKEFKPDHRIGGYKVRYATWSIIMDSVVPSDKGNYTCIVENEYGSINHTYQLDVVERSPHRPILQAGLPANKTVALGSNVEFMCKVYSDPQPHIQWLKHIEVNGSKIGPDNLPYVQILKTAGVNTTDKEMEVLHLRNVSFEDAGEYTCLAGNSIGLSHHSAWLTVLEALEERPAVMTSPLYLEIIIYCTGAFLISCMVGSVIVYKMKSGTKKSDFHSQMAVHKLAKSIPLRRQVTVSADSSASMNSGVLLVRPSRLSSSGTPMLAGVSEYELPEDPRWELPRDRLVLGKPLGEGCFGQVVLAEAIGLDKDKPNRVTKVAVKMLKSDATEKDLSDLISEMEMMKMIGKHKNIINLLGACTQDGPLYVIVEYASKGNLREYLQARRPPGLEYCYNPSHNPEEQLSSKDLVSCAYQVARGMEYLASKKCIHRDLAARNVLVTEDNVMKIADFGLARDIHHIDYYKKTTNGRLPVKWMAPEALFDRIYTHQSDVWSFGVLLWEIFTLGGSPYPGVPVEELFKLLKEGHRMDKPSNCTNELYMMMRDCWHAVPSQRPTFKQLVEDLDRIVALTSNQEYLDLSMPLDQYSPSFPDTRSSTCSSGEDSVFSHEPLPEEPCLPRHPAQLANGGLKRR
# runDescription: FGFR1 pERK cell assay
# Type: cell-based
# cond: HEK-293 dox-inducible FGFR1, 1 hour compound, 100 ng/ml FGF-acidic; maximum concentration 5 μM
pIC50: −log10 of the molar value.

{"smilesText": "C=CC(=O)N1CC(F)(C(=O)N2CCN(c3cc(C)c(-c4cc(OC)c5c(C#N)cnn5c4)cn3)CC2)C1", "pIC50": 5.88}
{"smilesText": "C=CC(=O)N1CC(OC)(C(=O)N2CCC(n3cc(-c4cc(OC)c5c(C#N)cnn5c4)cn3)CC2)C1", "pIC50": 7.04}
{"smilesText": "COc1cc(-c2cnn(C3CCN(CC4(OC)CN(C(=O)/C=C/CN(C)C)C4)CC3)c2C)cn2ncc(C#N)c12", "pIC50": 6.13}
{"smilesText": "C=CC(=O)N1CCC(C(=O)N2CCC(n3ncc(-c4cc(OC)c5c(C#N)cnn5c4)c3C)CC2)CC1", "pIC50": 5.47}
{"smilesText": "C#CC(=O)N1CC(C(=O)N2CCC(n3cc(-c4cc(OC)c5c(C#N)cnn5c4)cn3)CC2)C1", "pIC50": 6.94}
{"smilesText": "COC/C=C/C(=O)N1CC(F)(C(=O)N2CCC(n3ncc(-c4cc(OC)c5c(C#N)cnn5c4)c3C)CC2)C1", "pIC50": 5.58}
{"smilesText": "C=CC(=O)N1CC(C(=O)N2CC3(C2)CN(c2ccc(-c4cc(OC)c5c(C#N)cnn5c4)cn2)C3)C1", "pIC50": 5.95}

* * *

# testedSystem: recombinant human FGFR1 catalytic domain (amino acids 308-731) (Homo sapiens (Human))
# Sequence (P11362 other isoform, or with tags, fused parts or gaps): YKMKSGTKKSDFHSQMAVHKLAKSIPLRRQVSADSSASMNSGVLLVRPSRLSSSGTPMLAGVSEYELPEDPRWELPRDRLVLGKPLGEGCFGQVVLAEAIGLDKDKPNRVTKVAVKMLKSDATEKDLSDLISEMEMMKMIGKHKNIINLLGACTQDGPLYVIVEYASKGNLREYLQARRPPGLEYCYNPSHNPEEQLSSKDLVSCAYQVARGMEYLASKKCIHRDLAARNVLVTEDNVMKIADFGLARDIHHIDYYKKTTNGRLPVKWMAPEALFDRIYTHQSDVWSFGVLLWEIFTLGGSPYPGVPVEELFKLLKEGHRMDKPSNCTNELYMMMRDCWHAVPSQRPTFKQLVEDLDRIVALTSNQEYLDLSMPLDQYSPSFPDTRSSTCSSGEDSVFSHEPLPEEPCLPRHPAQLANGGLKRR
# runDescription: FGFR1 enzyme activity assay (LanthaScreen TR-FRET)
# cond: 20 min incubation at 22° C., average of multiple determinations if made, read-out: FGFR1 Enz FRET IC50

{"smilesText": "COc1cc(-c2cnn(C3CCN(C(=O)C4CN(C(=O)/C=C/CCl)C4)CC3)c2)cn2ncc(C#N)c12", "testedSystem": "recombinant human FGFR1 catalytic domain (amino acids 308-731) (Homo sapiens (Human))", "IC50 [nM]": 9}
{"smilesText": "C=CC(=O)N1CC(C(=O)N2CCC(n3cc(-c4cc(OCC)c5c(C#N)cnn5c4)cn3)CC2)C1", "testedSystem": "recombinant human FGFR1 catalytic domain (amino acids 308-731) (Homo sapiens (Human))", "IC50 [nM]": 13}
{"smilesText": "C=CC(=O)N1CC[C@H](C(=O)N2CC(n3cc(-c4cc(OC)c5c(C#N)cnn5c4)cn3)C2)C1", "testedSystem": "recombinant human FGFR1 catalytic domain (amino acids 308-731) (Homo sapiens (Human))", "IC50 [nM]": 52}
{"smilesText": "C=CC(=O)Nc1ccc(C(=O)N2CCC[C@@H](n3cc(-c4cc(OC)c5c(C#N)cnn5c4)cn3)C2)cc1", "testedSystem": "recombinant human FGFR1 catalytic domain (amino acids 308-731) (Homo sapiens (Human))", "IC50 [nM]": 36}
{"smilesText": "C=CC(=O)N1CC(C(=O)N2CCC(n3cc(-c4cc(OC5CCC5)c5c(C#N)cnn5c4)cn3)CC2)C1", "testedSystem": "recombinant human FGFR1 catalytic domain (amino acids 308-731) (Homo sapiens (Human))", "IC50 [nM]": 4}
{"smilesText": "COc1cc(-c2cnn(C3CCN(CC4(OC)CN(C(=O)/C=C/CN(C)C)C4)CC3)c2C)cn2ncc(Cl)c12", "testedSystem": "recombinant human FGFR1 catalytic domain (amino acids 308-731) (Homo sapiens (Human))", "IC50 [nM]": 281}
{"smilesText": "C=CC(=O)Nc1ccc(C(=O)N2CC[C@H](n3cc(-c4cc(OC)c5c(C#N)cnn5c4)cn3)C2)cc1", "testedSystem": "recombinant human FGFR1 catalytic domain (amino acids 308-731) (Homo sapiens (Human))", "IC50 [nM]": 16}
{"smilesText": "C=CC(=O)N1CC2(CCC(C(=O)N3CCC(n4cc(-c5cc(OC)c6c(C#N)cnn6c5)cn4)CC3)CC2)C1", "testedSystem": "recombinant human FGFR1 catalytic domain (amino acids 308-731) (Homo sapiens (Human))", "IC50 [nM]": 10}
{"smilesText": "CCc1c(-c2cc(OC)c3c(C#N)cnn3c2)cnn1C1CCN(C(=O)C2(F)CN(C(=O)/C=C/CN(C)C)C2)CC1", "testedSystem": "recombinant human FGFR1 catalytic domain (amino acids 308-731) (Homo sapiens (Human))", "IC50 [nM]": 311}
{"smilesText": "C=CC(=O)N1CC[C@@H](C(=O)N2CCN(c3ccc(-c4cc(OC)c5c(C#N)cnn5c4)cn3)CC2)C1", "testedSystem": "recombinant human FGFR1 catalytic domain (amino acids 308-731) (Homo sapiens (Human))", "IC50 [nM]": 16}
{"smilesText": "COc1cc(-c2ccc(N3CCN(C(=O)C4(F)CN(C(=O)/C=C/CN(C)C)C4)CC3)nc2C)cn2ncc(C#N)c12", "testedSystem": "recombinant human FGFR1 catalytic domain (amino acids 308-731) (Homo sapiens (Human))", "IC50 [nM]": 148}
{"smilesText": "C=CC(=O)N1CC[C@@H](C(=O)N2CC[C@@H](n3cc(-c4cc(OC)c5c(C#N)cnn5c4)cn3)C2)C1", "testedSystem": "recombinant human FGFR1 catalytic domain (amino acids 308-731) (Homo sapiens (Human))", "IC50 [nM]": 55}
{"smilesText": "C=CC(=O)N1CC(C)(CN2CC(n3ncc(-c4cc(OC)c5c(C#N)cnn5c4)c3C)C2)C1", "testedSystem": "recombinant human FGFR1 catalytic domain (amino acids 308-731) (Homo sapiens (Human))", "IC50 [nM]": 376}
{"smilesText": "C=CC(=O)N1CCC(Oc2cccc(-n3cc(-c4cc(OC)c5c(C#N)cnn5c4)cn3)c2)CC1", "testedSystem": "recombinant human FGFR1 catalytic domain (amino acids 308-731) (Homo sapiens (Human))", "IC50 [nM]": 188}
{"smilesText": "C=CC(=O)N1CC(F)(C(=O)N2CCC(n3ncc(-c4cc(OC)c5c(C#N)cnn5c4)c3CC)CC2)C1", "testedSystem": "recombinant human FGFR1 catalytic domain (amino acids 308-731) (Homo sapiens (Human))", "IC50 [nM]": 384}

* * *

# testedSystem: recombinant human FGFR3 (amino acids R397-T806) (Homo sapiens (Human))
# Sequence (P22607 397-806): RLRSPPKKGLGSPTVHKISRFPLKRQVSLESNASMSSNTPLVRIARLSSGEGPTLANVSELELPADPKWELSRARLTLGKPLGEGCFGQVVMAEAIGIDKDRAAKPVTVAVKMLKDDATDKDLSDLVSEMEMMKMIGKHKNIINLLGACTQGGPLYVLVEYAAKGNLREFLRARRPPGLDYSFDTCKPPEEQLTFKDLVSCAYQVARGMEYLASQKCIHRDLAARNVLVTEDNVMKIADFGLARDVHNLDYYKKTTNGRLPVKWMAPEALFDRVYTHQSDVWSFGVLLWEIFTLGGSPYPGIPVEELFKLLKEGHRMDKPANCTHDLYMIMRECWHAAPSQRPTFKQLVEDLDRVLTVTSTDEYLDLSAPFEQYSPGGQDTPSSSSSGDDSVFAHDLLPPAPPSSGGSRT
# runDescription: FGFR3 enzyme activity assay (LanthaScreen TR-FRET)
# cond: 25 μM ATP, 10 min incubation at 22° C., average of multiple determinations if made, read-out: FGFR3 Enz FRET IC50
// reported IC50 per item

{"compound": "C=CC(=O)N1CC(C(=O)N2CCC(n3cc(-c4cc(OC)c5c(Cl)cnn5c4)cn3)CC2)C1 [Example 122]", "IC50": "9 nM"}
{"compound": "C=CC(=O)N1CCC[C@H](C(=O)N2CC[C@H](n3cc(-c4cc(OC)c5c(C#N)cnn5c4)cn3)C2)C1 [Example 63]", "IC50": "3 nM"}
{"compound": "C=CC(=O)Nc1ccc(C(=O)N2CC[C@H](n3cc(-c4cc(OC)c5c(C#N)cnn5c4)cn3)C2)cc1OC [Example 71]", "IC50": "6 nM"}
{"compound": "C=CC(=O)N1CCC(C(=O)N2CC(n3cc(-c4cc(OC)c5c(C#N)cnn5c4)cn3)C2)CC1 [Example 75]", "IC50": "13 nM"}
{"compound": "COc1cc(-c2cnn(C3CCN(C(=O)C4(OC)CN(C(=O)/C=C/CN(C)C)C4)CC3)c2C)cn2ncc(C#N)c12 [Example 158]", "IC50": "8 nM"}
{"compound": "C=CC(=O)N1CC[C@H](C(=O)N2CCC(n3cc(-c4cc(OC)c5c(C#N)cnn5c4)cn3)CC2)C1 [Example 28]", "IC50": "9 nM"}
{"compound": "COc1cc(-c2cnn(C3CCN(CC4CN(C(=O)/C=C/CN5CCCCC5)C4)CC3)c2)cn2ncc(C#N)c12 [Example 175]", "IC50": "5 nM"}
{"compound": "C=CC(=O)N1CC(OC)(C(=O)N2CCC(n3cc(-c4cc(OC)c5c(Cl)cnn5c4)cn3)CC2)C1 [Example 124]", "IC50": "8 nM"}
{"compound": "C=CC(=O)N1CC[C@@H](C(=O)N2CC[C@H](n3cc(-c4cc(OC)c5c(C#N)cnn5c4)cn3)C2)C1 [Example 72]", "IC50": "3 nM"}
{"compound": "C=CC(=O)N1CC(C)(CN2CCC(n3ncc(-c4cc(OC)c5c(C#N)cnn5c4)c3C)CC2)C1 [Example 90]", "IC50": "21 nM"}
{"compound": "C=CC(=O)N1CC(CN2CC(n3cc(-c4cc(OC)c5c(C#N)cnn5c4)cn3)C2)C1 [Example 81]", "IC50": "9 nM"}
{"compound": "C=CC(=O)N1CC(C(=O)N2C[C@H]3C[C@@H]2CN3c2ccc(-c3cc(OC)c4c(C#N)cnn4c3)cn2)C1 [Example 107]", "IC50": "27 nM"}
{"compound": "C=CC(=O)N1CC(C(=O)N2CCC3(C2)CN(c2ccc(-c4cc(OC)c5c(C#N)cnn5c4)cn2)C3)C1 [Example 103]", "IC50": "20 nM"}
{"compound": "C=CC(=O)N1CC(C(=O)N2CC3CCC(C2)N3c2ccc(-c3cc(OC)c4c(C#N)cnn4c3)cn2)C1 [Example 51]", "IC50": "22 nM"}
{"compound": "COc1cc(-c2cnn(C3CCN(C(=O)C4CN(C(=O)/C=C/CN5CCOCC5)C4)CC3)c2)cn2ncc(C#N)c12 [Example 184]", "IC50": "6 nM"}

Sourced from patent US12180207B2
